system.tested: human full-length recombinant PKC βII (Homo sapiens, UniProt P05771)
Construct: Active human full-length recombinant PKC βII; purchased Invitrogen GmbH, Darmstadt, Germany
Sequence (P05771 1-673 isoform P05771-2): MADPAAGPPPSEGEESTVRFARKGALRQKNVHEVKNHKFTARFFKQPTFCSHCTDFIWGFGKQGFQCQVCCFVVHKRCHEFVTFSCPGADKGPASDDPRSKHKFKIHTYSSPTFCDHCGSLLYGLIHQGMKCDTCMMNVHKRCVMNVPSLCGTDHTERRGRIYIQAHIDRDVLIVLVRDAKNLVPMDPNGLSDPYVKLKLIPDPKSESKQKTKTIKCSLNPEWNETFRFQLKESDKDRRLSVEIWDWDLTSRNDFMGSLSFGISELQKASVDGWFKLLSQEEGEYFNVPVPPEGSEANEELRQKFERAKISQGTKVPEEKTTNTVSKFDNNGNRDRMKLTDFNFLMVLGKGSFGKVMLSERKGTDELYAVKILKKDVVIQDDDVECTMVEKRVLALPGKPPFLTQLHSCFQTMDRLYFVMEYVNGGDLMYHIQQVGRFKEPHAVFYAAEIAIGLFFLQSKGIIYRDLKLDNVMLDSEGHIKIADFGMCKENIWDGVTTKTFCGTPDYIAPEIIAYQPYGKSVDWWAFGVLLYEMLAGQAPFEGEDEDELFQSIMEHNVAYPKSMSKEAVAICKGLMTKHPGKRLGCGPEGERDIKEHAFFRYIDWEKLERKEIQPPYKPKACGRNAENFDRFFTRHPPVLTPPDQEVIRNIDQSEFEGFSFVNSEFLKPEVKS
protocol.description: Determination of PKC βII inhibition (Caliper mobility shift kinase assay)
Type: biochemical
experimental.parameters: final compound concentration 1.14 μM (±0.15 μM); 60 min incubation at 32° C.
In this section we review reported inhibition at 1.14 µM values for a set of molecules.
Give the value, in units of %, as a plain number.

Study these solved cases before continuing.
molecule	units.of.measure	numeric.result
Cc1n[nH]c2nc(-c3ccc(O)cc3F)cc(CN3CC(C)(C)NC[C@H]3C(C)C)c12 [Example 134]	%	102
Cc1n[nH]c2nc(-c3ccc(O)cc3F)cc(CN3CC(C)(C)N(CC4CCOCC4)CC3(C)C)c12 [Example 70]	%	96
Cc1n[nH]c2nc(-c3ccc(O)cc3)cc(CN3C[C@@H](C)NCC3(C)C)c12 [Example 132]	%	97
Cc1n[nH]c2nc(-c3ccc(O)cc3F)cc(CN3CC(C)(C)N(C[C@H](O)CO)CC3(C)C)c12 [Example 73]	%	97
Cc1n[nH]c2nc(-c3ccc(O)cc3F)cc(CN3CC(C)(C)NCC3(C)C3CC3)c12 (stereo not drawn) [Example 34]	%	73

Here's the next entry for you.
Requested field: inhibition at 1.14 µM. Item: Cc1n[nH]c2nc(-c3ccc(O)cc3F)cc(CN3CC(C)(C)NCC34CCCC4)c12 [Example 15]
96

###

Examples of molecules with documented inhibition at 1.14 µM follow.
system.tested: human full-length recombinant PKC βII (Homo sapiens, UniProt P05771)
Construct: Active human full-length recombinant PKC βII; purchased Invitrogen GmbH, Darmstadt, Germany
protocol.description: Determination of PKC βII inhibition (Caliper mobility shift kinase assay)
Format: biochemical
experimental.parameters: final compound concentration 1.14 μM (±0.15 μM); 60 min incubation at 32° C.
Respond numerically; units are % and should not be typed.

molecule	inhibition at 1.14 µM [%]
Cc1n[nH]c2nc(-c3ccc(O)cc3F)cc(CN3CC(C)(C)NC[C@H]3C)c12 [Example 123]	88
Cc1n[nH]c2nc(-c3ccc(O)cc3)cc(CN3CC(C)(C)NCC3C)c12 (stereo not shown) [Example 52]	91
Cc1n[nH]c2nc(-c3ccc(O)cc3F)cc(CN3C[C@H](C(C)C)NCC3(C)C)c12 [Example 129]	97

Data request, read-out inhibition at 1.14 µM, for CC[C@@H]1CN(Cc2cc(-c3ccc(O)cc3F)nc3[nH]nc(C)c23)[C@@H](C)CN1 [Example 30]
97

###

system.tested: human full-length recombinant PKC βII (Homo sapiens, UniProt P05771)
Construct: Active human full-length recombinant PKC βII; purchased Invitrogen GmbH, Darmstadt, Germany
protocol.description: Determination of PKC βII inhibition (Caliper mobility shift kinase assay)
Format: biochemical
experimental.parameters: final compound concentration 1.14 μM (±0.15 μM); 60 min incubation at 32° C.
readout.type: inhibition at 1.14 µM (%)
# value in %; strip the unit string

Some compounds with known inhibition at 1.14 µM results, for comparison:
compound	system.tested	units.of.measure	numeric.result
CCC1(C)CNC(C)(C)CN1Cc1cc(-c2ccc(O)cc2F)nc2[nH]nc(C)c12 (centres unmarked)	human full-length recombinant PKC βII (Homo sapiens, UniProt P05771)	%	101
Cc1n[nH]c2nc(-c3ccc(O)cc3F)cc(C(C)N3C[C@@H](C)N[C@@H](C)C3)c12 (some centres unmarked)	human full-length recombinant PKC βII (Homo sapiens, UniProt P05771)	%	87
Cc1n[nH]c2nc(-c3ccc(O)cc3F)cc(CN3CC(C)(C)NCC3C(C)C)c12 (centres unmarked)	human full-length recombinant PKC βII (Homo sapiens, UniProt P05771)	%	94
Cc1n[nH]c2nc(-c3ccc(O)cc3F)cc(CN3CCNC[C@@H]3C(F)(F)F)c12	human full-length recombinant PKC βII (Homo sapiens, UniProt P05771)	%	101
Cc1n[nH]c2nc(-c3ccc(O)cc3F)cc(CN3CCNCC34CCCC4)c12	human full-length recombinant PKC βII (Homo sapiens, UniProt P05771)	%	103
CC(=O)N1CC(C)(C)N(Cc2cc(-c3ccc(O)cc3F)nc3[nH]nc(C)c23)CC1(C)C	human full-length recombinant PKC βII (Homo sapiens, UniProt P05771)	%	97
Cc1n[nH]c2nc(-c3ccc(O)cc3F)cc(CN3CCNCC3(C)C)c12	human full-length recombinant PKC βII (Homo sapiens, UniProt P05771)	%	92

Fill in: inhibition at 1.14 µM of Cc1n[nH]c2nc(-c3ccc(O)cc3F)cc(C(C)N3CCNCC3)c12 (centres unmarked) is ___
96

###

inhibition at 1.14 µM: recorded values
system.tested: human full-length recombinant PKC βII (Homo sapiens)
Construct: Active human full-length recombinant PKC βII; purchased Invitrogen GmbH, Darmstadt, Germany
protocol.description: Determination of PKC βII inhibition (Caliper mobility shift kinase assay)
Type: biochemical
experimental.parameters: final compound concentration 1.14 μM (±0.15 μM); 60 min incubation at 32° C.

// known answers, use as guide
compound	readout.type	result
Cc1n[nH]c2nc(-c3ccc(O)cc3F)cc(CN3CCNCC3C(F)(F)F)c12 (stereo not shown)	inhibition at 1.14 µM	109%
CC[C@H]1CNC(C)(C)CN1Cc1cc(-c2ccc(O)cc2F)nc2[nH]nc(C)c12	inhibition at 1.14 µM	101%
Cc1n[nH]c2nc(-c3ccc(O)cc3F)cc(CN3CCNC[C@H]3c3ccc(F)cc3)c12	inhibition at 1.14 µM	104%
CCC1(CC)CN(Cc2cc(-c3ccc(O)c(F)c3)nc3[nH]nc(C)c23)C(C)(C)CN1	inhibition at 1.14 µM	91%
CNC1CCN(Cc2cc(-c3ccc(O)cc3)nc3[nH]nc(C)c23)C1 (stereo not shown)	inhibition at 1.14 µM	81%

What inhibition at 1.14 µM value was documented for this compound, Cc1n[nH]c2nc(-c3ccc(O)cc3F)cc(CN3CC(C)(C)N(C(=O)CO)CC3(C)C)c12 ?
93%

# input compound: Cc1n[nH]c2nc(-c3ccc(O)cc3F)cc(CN3CC(C)(C)N(C(=O)C4CCOC4)CC3(C)C)c12 (stereo not shown) ; wanted: its inhibition at 1.14 µM
98%

###

system.tested: human full-length recombinant PKC βII (Homo sapiens)
Construct: Active human full-length recombinant PKC βII; purchased Invitrogen GmbH, Darmstadt, Germany
protocol.description: Determination of PKC βII inhibition (Caliper mobility shift kinase assay)
Assay type: biochemical
experimental.parameters: final compound concentration 1.14 μM (±0.15 μM); 60 min incubation at 32° C.
readout.type: inhibition at 1.14 µM (%)
Just the number please, in %, no unit attached.

compound	inhibition at 1.14 µM, %
Cc1n[nH]c2nc(-c3ccc(O)cc3)cc(CN3CC(C)N(CC4CCCO4)CC3(C)C)c12 (stereo not shown) [Example 62]	99
Cc1n[nH]c2nc(-c3ccc(O)cc3F)cc(CN3CCCNC(C)C3)c12 (stereo not shown) [Example 25]	102
Cc1n[nH]c2nc(-c3ccc(O)cc3F)cc(CN3CC(C)(C)N(C)CC3(C)C)c12 [Example 66]	100

Now take the following compound into account.
# lookup: inhibition at 1.14 µM of Cc1n[nH]c2nc(-c3ccc(O)cc3F)cc(CN3CCNCC3(C)c3ccccc3)c12 (stereo not shown) [Example 12]
94

###

system.tested: human full-length recombinant PKC βII (Homo sapiens, UniProt P05771)
Construct: Active human full-length recombinant PKC βII; purchased Invitrogen GmbH, Darmstadt, Germany
protocol.description: Determination of PKC βII inhibition (Caliper mobility shift kinase assay)
Format: biochemical
experimental.parameters: final compound concentration 1.14 μM (±0.15 μM); 60 min incubation at 32° C.
readout.type: inhibition at 1.14 µM (%)
Return type: number; implicit unit %.

For orientation, consider the following solved cases.
molecule	inhibition at 1.14 µM (%)
Cc1n[nH]c2nc(-c3ccc(O)cc3F)cc(CN3CCNCC3c3ccc(F)cc3)c12 (centres unmarked)	94
Cc1n[nH]c2nc(-c3ccc(O)cc3)cc(CN3CC(C)(C)NC[C@H]3C)c12	98
COC(=O)CNC(=O)N1CC(C)(C)N(Cc2cc(-c3ccc(O)cc3)nc3[nH]nc(C)c23)CC1(C)C	92
Cc1n[nH]c2nc(-c3ccc(O)cc3)cc(CN3CC(C)(C)NC[C@@H]3C)c12	95

I am curious: what inhibition at 1.14 µM value has been reported for Cc1n[nH]c2nc(-c3ccc(O)cc3)cc(CN3CCNCC3c3ccc(F)cc3)c12 (centres unmarked) ?
94

Sample Cc1n[nH]c2nc(-c3ccc(O)cc3F)cc(CN3CCNC[C@H]3c3ccc(C(C)C)cc3)c12 — what was its inhibition at 1.14 µM?
85

Given the entry CCC1(CC)CNC(C)(C)CN1Cc1cc(-c2ccc(O)cc2F)nc2[nH]nc(C)c12 , report its measured inhibition at 1.14 µM.
101

// lookup inhibition at 1.14 µM for Cc1n[nH]c2nc(-c3ccc(O)cc3F)cc(CN3CC4(CCCC4)N(C)CC3(C)C)c12
98

// lookup inhibition at 1.14 µM for Cc1n[nH]c2nc(-c3ccc(O)cc3F)cc(CN3CC(C(C)C)NCC3(C)C)c12 (centres unmarked)
98
